- Test system: AGO2 (loaded with guide RNA) (Homo sapiens, UniProt Q9UKV8 1-859)
- Sequence (Q9UKV8 whole entry): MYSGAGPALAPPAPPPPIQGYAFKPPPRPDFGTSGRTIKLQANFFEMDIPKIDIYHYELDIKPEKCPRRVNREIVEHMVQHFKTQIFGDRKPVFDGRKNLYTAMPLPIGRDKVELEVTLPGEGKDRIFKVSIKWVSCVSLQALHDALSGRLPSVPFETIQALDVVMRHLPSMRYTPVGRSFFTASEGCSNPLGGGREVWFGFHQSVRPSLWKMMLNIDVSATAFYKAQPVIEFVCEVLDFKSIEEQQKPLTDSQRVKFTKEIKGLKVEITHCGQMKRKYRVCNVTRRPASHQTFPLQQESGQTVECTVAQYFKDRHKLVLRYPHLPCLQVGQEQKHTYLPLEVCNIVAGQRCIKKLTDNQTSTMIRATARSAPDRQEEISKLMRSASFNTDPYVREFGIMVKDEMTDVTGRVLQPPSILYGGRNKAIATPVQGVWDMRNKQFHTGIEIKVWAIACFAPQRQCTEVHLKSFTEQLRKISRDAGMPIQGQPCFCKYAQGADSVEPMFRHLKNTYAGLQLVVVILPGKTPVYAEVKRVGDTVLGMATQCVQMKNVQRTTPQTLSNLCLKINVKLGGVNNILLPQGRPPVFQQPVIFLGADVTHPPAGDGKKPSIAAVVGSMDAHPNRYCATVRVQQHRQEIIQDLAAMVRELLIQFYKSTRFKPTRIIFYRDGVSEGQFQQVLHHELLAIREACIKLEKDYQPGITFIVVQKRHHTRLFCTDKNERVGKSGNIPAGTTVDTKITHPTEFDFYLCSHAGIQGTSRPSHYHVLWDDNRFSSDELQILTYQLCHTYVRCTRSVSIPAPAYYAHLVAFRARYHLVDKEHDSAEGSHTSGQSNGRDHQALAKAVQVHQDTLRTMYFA
- Method summary: filter binding; range over four guides; 18 mM HEPES pH 7.4, 100 mM K-acetate, 1 mM Mg-acetate, 0.01% IGEPAL, 0.01 mg/mL yeast tRNA, 5 mM DTT, BSA, glycerol, 37 C, 4 h, 1-5 pM target; kinetics with 10
- Measurement conditions: protein: recombinant, tags: 3xFLAG-SUMOEu1 (removed by SENPEuB cleavage), label: 32P target, complementary to g9-22
pKd: −log10 of the molar value.
Readout: pKd

The binder listed as miR-124 mut / m9_22 (mixed, 5'-phosphate guide) RNA 1: UCUGGCUCGCGGUGAAUGCCAA RNA 2: UUUUUUUUGGCAUUCACCGCUUUUUUUUUUUUUUUU shows pKd equal to ~10.58
